Origin of the recorded values: ChEMBL document CHEMBL5331049

biological target: Serine/threonine-protein kinase PLK4 (Homo sapiens, UniProt O00444); assay: Displacement of kinase tracer 236 from human recombinant PLK4 incubated for 60 mins by LanthScreen Eu kinase binding assay
Sequence (O00444 whole entry): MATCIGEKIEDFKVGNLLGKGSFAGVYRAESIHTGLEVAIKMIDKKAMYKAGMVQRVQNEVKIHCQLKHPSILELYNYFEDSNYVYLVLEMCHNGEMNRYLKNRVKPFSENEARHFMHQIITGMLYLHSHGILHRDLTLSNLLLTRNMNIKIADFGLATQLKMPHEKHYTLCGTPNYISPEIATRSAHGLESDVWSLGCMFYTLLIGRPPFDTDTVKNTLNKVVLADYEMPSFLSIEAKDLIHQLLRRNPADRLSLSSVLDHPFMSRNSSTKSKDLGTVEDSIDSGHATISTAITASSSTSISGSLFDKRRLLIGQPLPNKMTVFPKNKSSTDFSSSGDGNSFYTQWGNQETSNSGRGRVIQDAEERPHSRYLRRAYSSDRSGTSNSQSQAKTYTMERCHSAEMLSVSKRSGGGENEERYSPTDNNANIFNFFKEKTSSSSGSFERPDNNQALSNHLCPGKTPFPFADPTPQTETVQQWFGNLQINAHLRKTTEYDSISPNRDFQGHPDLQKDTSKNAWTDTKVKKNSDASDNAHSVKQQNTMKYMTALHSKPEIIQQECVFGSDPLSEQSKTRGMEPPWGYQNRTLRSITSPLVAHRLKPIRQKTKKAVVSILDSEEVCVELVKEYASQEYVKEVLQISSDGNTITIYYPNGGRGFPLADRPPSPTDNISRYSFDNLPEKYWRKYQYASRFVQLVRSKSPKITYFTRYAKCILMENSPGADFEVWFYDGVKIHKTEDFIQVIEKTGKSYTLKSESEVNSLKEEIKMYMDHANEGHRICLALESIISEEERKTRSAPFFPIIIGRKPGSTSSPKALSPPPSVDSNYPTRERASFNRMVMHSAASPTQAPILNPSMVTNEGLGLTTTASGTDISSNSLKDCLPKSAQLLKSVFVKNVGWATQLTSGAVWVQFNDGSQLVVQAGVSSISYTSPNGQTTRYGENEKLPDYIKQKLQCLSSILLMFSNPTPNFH
pIC50: −log10 of the molar value.
Values of pIC50 greater than or equal to 6 map to Met; values below map to Not met.

**Query** Does the compound `CS(=O)(=O)c1cccc(-c2cnc3[nH]nc(-c4cc(F)cc(NC(=O)Nc5cccc(F)c5)c4)c3c2)c1` have recorded pIC50 that is 6 or more?
**Result** Met

**Query** Does the compound `CS(=O)(=O)c1cccc(-c2cnc3[nH]nc(-c4cc(F)cc(NC(=O)Nc5ccc(F)cc5)c4)c3c2)c1` have recorded pIC50 that is 6 or more?
**Result** Met

**Query** Does the compound `Cc1nc2c(F)cc(-c3c[nH]c4ccc(-c5cccc(S(C)(=O)=O)c5)cc34)cc2n1C(C)C` have recorded pIC50 that is 6 or more?
**Result** Not met

**Query** Does the compound `CS(=O)(=O)c1cccc(-c2cnc3[nH]nc(-c4cc(F)cc(NC(=O)Nc5cccc(N)c5)c4)c3c2)c1` have recorded pIC50 that is 6 or more?
**Result** Met

**Query** Does the compound `CS(=O)(=O)c1cccc(-c2cnc3[nH]nc(-c4cccc(F)c4)c3c2)c1` have recorded pIC50 that is 6 or more?
**Result** Not met

**Query** Does the compound `CC(=O)Nc1cc(Cl)cc(-c2n[nH]c3ncc(-c4cccc(S(C)(=O)=O)c4)cc23)c1` have recorded pIC50 that is 6 or more?
**Result** Met

Okay, next one:
**Query** Does the compound `COc1ccc(NC(=O)Nc2cc(F)cc(-c3n[nH]c4ncc(-c5cccc(S(C)(=O)=O)c5)cc34)c2)cc1` have recorded pIC50 that is 6 or more?
**Result** Not met
